Target: T1, full-length beta-Catenin (Uniprot ID P35222) (Homo sapiens (Human), UniProt P35222 1-781)
T1 construct: also called bCat; B-Catenin
T1 sequence: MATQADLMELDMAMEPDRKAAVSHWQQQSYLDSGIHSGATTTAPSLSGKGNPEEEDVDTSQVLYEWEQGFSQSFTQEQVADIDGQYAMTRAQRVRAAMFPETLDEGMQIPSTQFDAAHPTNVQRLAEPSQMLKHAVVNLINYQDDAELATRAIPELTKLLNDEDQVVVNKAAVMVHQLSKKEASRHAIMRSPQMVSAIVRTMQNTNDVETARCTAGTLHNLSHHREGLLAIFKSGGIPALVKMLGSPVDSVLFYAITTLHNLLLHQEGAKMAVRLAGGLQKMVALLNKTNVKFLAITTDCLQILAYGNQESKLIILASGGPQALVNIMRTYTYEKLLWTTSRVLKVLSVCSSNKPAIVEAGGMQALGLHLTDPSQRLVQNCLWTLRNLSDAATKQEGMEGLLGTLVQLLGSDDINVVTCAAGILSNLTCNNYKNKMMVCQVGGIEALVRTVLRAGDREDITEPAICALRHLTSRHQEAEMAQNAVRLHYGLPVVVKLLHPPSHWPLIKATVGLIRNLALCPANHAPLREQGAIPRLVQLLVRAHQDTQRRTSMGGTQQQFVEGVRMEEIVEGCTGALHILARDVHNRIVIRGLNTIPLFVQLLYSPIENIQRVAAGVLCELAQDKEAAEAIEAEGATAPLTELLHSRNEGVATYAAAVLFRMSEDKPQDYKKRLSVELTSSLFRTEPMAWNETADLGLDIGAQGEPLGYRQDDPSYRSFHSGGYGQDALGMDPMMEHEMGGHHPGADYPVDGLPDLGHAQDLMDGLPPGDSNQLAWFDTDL
Experiment: fluorescence polarization competition; full-length beta-catenin + 5FAM-TCF4(10-53) probe
Starred links: 1 amine or outer side, 2 acyl side, 3 side chain; linkers in the order of their positions; H or OH if unused. Positions of bridges follow the written chain, without caps; N, C: chain ends. Non-standard residues stand in square brackets, D forms with d. Primed or numbered codes have the meaning given here. B5(10) = 2-amino-2-(pent-4-en-1-yl)hept-6-enoic acid, bis(4-pentenyl)glycine, stitching residue bearing both staples, C=CCCCC(CCCC=C)(N[*:1])C(=O)[*:2]; PyrS2 = (S)-3-amino-1-((pent-4-en-1-yloxy)carbonyl)pyrrolidine-3-carboxylic acid, C=CCCCOC(=O)N1CC[C@@](N[*:1])(C(=O)[*:2])C1; Bta = N[C@@H](Cc1csc2ccccc12)C(=O)O; αAllylPro = C=CC[C@@]1(C(=O)O)CCCN1
pEC50: recorded values
Reminder that pEC50 means the negative base-10 logarithm of the concentration expressed in mol/L.

Ask: What does the data say about its pEC50? Entry: Ac-[αAllylPro]NA[B5(10)]DTAAFL[PyrS2]F[Bta]Q-NH2 (staple 1-4, 4-11; not fully specified; printed as Ac-PL3-Asn-Ala-B5-Asp-Thr-Ala-Ala-Phe-Leu-PyrS2-Phe-BztA-Gln-NH2) [I-1287]
Result: 5.00

New cases:
Ask: What does the data say about its pEC50? Entry: Ac-[αAllylPro]DA[B5(10)]NTAAFL[PyrS2]F[Bta]Q-NH2 (staple 1-4, 4-11; not fully specified; printed as Ac-PL3-Asp-Ala-B5-Asn-Thr-Ala-Ala-Phe-Leu-PyrS2-Phe-BztA-Gln-NH2) [I-1295]
Result: 5.00

Ask: What does the data say about its pEC50? Entry: Ac-[αAllylPro]DA[B5(10)]NTAAFL[PyrS2]F[Bta]Q-NH2 (staple 1-4, 4-11; not fully specified; printed as Ac-PL3-Asp-Ala-B5-Asn-Thr-Ala-Ala-Phe-Leu-PyrS2-Phe-BztA-Gln-NH2) [I-1296]
Result: 5.42

Ask: What does the data say about its pEC50? Entry: Ac-[αAllylPro]NA[B5(10)]DTAAFL[PyrS2]F[Bta]Q-NH2 (staple 1-4, 4-11; not fully specified; printed as Ac-PL3-Asn-Ala-B5-Asp-Thr-Ala-Ala-Phe-Leu-PyrS2-Phe-BztA-Gln-NH2) [I-1286]
Result: 5.00
